molecular target: HLA-A*30:02; experiment: IEDB peptide-MHC binding, purified MHC/competitive/radioactivity; filed as Kd, often an IC50 or EC50 that approximates it; bounds were set here for any values at or beyond the usual limits of such assays; details: source organism: Lymphocytic choriomeningitis virus (strain Armstrong)
reported_metric: Kd

Inquiry: # get_value(readout='Kd', item= "ICISLSNSF" )
Reply text: ≥ 76.9 µM

###

target: HLA-A*02:50; test: IEDB peptide-MHC binding, purified MHC/competitive/fluorescence; filed as Kd, often an IC50 or EC50 that approximates it; bounds were set here for any values at or beyond the usual limits of such assays; settings: source organism: Salmonella enterica subsp. enterica serovar Typhi
reported_metric: pKd
Note: pKd values are expressed as the negative base-10 logarithm of concentration in M.

Inquiry: # get_value(readout='pKd', item= "WTLETLPRV" )
Reply text: 8.03

###

target: HLA-A*69:01; test: IEDB peptide-MHC binding, purified MHC/direct/fluorescence; filed as Kd, often an IC50 or EC50 that approximates it; bounds were set here for any values at or beyond the usual limits of such assays; conditions: source organism: Escherichia coli O6
reported_metric: Kd (nM)
Quick reminder: number only, in nM, skip the unit.

Inquiry: # get_value(readout='Kd', item= "AHGWSTFYL" )
Reply text: 1540

###

molecular target: HLA-B*07:02; assay: IEDB peptide-MHC binding, purified MHC/competitive/fluorescence; filed as Kd, often an IC50 or EC50 that approximates it; bounds were set here for any values at or beyond the usual limits of such assays; settings: source organism: Escherichia coli 536
reported_metric: pKd
Note: pKd values are expressed as the negative base-10 logarithm of concentration in M.

Inquiry: Query for HLA-B*07:02: what pKd does the record show for "HPYKIPATV" ?
Reply text: 6.71

###

target: HLA-B*15:17; assay: IEDB peptide-MHC binding, purified MHC/competitive/fluorescence; filed as Kd, often an IC50 or EC50 that approximates it; bounds were set here for any values at or beyond the usual limits of such assays; conditions: source organism: Giardia lamblia ATCC 50803
pKd: −log10 of the molar value.
reported_metric: pKd

Inquiry: # get_value(readout='pKd', item= "LLDDGWAGE" )
Reply text: ≤ 4.70

###

molecular target: HLA-B*18:01; assay: IEDB peptide-MHC binding, purified MHC/competitive/fluorescence; filed as Kd, often an IC50 or EC50 that approximates it; bounds were set here for any values at or beyond the usual limits of such assays; conditions: source organism: Homo sapiens
reported_metric: Kd

Inquiry: # get_value(readout='Kd', item= "WLGHPFTPV" )
Reply text: ≥ 20 µM

###

biological target: HLA-A*11:01; assay: IEDB peptide-MHC binding, purified MHC/direct/fluorescence; filed as Kd, often an IC50 or EC50 that approximates it; bounds were set here for any values at or beyond the usual limits of such assays; settings: source organism: Toxoplasma gondii
reported_metric: pKd
Note: pKd values are expressed as the negative base-10 logarithm of concentration in M.

Inquiry: # get_value(readout='pKd', item= "VSSHKGWAK" )
Reply text: 8.70

###

molecular target: HLA-A*31:01; experiment: IEDB peptide-MHC binding, purified MHC/competitive/radioactivity; filed as Kd, often an IC50 or EC50 that approximates it; bounds were set here for any values at or beyond the usual limits of such assays; conditions: source organism: SARS coronavirus Tor2
Assign a class from recorded Kd; defined classes: class 1 = under 100 nM, class 2 = from 100 nM up to 1000 nM, class 3 = 1000 nM and over

// known answers, use as guide
MSAPPAEYK class 1
RQLFKPLTKK class 2
SVVNARLRAK class 3
AVMYMGTLSY class 3
SSIVRQLFK class 3

Inquiry: Sort into band: "TQYNRYLALY"
Reply text: class 2

Inquiry: Please do the same for "TVCTVCGMWK" as well.
Reply text: class 2

Inquiry: Please do the same for "PVVAAIITR" as well.
Reply text: class 3
